Ok so here's the combined literature set: pIC50 for Protein deacetylase HDAC6 (Homo sapiens, UniProt Q9UBN7).
Molecular target: Protein deacetylase HDAC6 (Homo sapiens, UniProt Q9UBN7)
Sequence (Q9UBN7 whole entry): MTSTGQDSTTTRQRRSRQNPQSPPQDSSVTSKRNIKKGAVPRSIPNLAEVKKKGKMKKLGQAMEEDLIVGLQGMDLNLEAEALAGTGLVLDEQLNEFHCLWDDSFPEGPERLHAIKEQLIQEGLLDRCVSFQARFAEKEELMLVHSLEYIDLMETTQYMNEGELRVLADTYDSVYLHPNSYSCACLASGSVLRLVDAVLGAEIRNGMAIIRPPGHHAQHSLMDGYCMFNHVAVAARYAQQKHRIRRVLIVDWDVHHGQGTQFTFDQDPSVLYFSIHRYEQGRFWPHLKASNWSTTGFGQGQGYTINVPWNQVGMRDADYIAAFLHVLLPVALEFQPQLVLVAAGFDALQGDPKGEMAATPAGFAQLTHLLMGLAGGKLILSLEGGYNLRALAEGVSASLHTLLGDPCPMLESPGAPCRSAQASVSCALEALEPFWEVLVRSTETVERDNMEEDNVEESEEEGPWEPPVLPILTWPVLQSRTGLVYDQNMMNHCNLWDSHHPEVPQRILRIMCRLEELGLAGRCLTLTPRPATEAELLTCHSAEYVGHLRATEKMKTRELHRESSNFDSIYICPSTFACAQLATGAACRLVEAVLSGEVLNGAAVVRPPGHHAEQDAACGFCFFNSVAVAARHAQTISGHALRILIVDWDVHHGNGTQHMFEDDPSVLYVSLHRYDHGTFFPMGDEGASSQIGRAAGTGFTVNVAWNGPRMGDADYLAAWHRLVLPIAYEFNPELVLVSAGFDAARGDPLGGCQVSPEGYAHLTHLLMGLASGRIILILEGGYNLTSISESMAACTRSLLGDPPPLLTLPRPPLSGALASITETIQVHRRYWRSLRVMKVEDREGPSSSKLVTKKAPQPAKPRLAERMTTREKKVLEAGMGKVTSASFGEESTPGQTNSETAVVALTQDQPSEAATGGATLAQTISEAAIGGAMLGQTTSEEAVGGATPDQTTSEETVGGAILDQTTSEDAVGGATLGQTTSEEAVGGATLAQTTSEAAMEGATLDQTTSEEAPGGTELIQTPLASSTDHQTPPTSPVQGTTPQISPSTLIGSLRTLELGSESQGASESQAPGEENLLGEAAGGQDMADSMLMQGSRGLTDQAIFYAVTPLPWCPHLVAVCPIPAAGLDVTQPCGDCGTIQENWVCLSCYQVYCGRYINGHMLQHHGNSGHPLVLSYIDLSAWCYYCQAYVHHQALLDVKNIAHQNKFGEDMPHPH
pIC50: −log10 of the molar value.
Endpoint Label: pIC50

1) CN1C(=O)CC(C)(C)c2cc(C(=O)NCCCCCCC(=O)NO)ccc21 ... 6.89
2) CC[C@H](Nc1ncnc2[nH]cnc12)c1nc2cccc(F)c2c(=O)n1CCCCCC(=O)NO ... 6.92
3) COc1cccc(-c2ccc3c(NC(=O)c4ccc(C(=O)NO)cc4)n[nH]c3c2)c1 ... 6.88
4) Cn1cc(-c2cn(Cc3ccc(C(=O)NO)cc3)c(=O)c(N3CCOCC3)n2)cn1 ... 7.68
5) Cn1cc(-c2ccccc2Oc2ccccc2)c2cc(C(=O)NCCCCC(=O)NO)[nH]c2c1=O ... 8.40
6) O=C(CCC1C(=O)N(c2ccc(Cl)cc2)C(=O)N1Cc1ccc(Br)cc1)Nc1ccc(C(=O)NO)cc1 (stereo unspecified) ... 8.01
7) COc1ccc2[nH]cc(Cn3cc(COc4ccc(/C=C/C(=O)NO)cc4OC)nn3)c2c1 ... 6.54
8) Cn1c(CNc2cccc(F)c2)nc2cc(C(=O)NO)ccc21 ... 8.17
9) Cn1c(CNc2ccccc2)nc2cc(C(=O)NO)ccc21 ... 7.80
10) COc1cc(/C=C2\SC(=O)N(CCNC(=O)Nc3c(C)n(C)n(-c4ccccc4)c3=O)C2=O)cc(OC)c1OC ... 6.32

P = CNC(=O)c1ccc(C(=O)NO)cc1
Q = Cc1cc(-c2nc3sc4c(c3c(=O)[nH]2)CCN(C)C4)cc(C)c1OCCOCc1ccc(/C=C/C(=O)NO)cc1
Asked: // returns P or Q , whichever has the lower pIC50 Please indicate the selected item by its label.
Given back: Q

1 = O=C(c1cc(-c2ccccc2)cs1)C(F)(F)F
2 = Cc1cccc(NC(=O)[C@H](CCCCCS)NC(=O)[C@@H]2CCC(=O)N2)c1
Asked: Which value of pIC50 is greater, the one for 1 or the one for 2 ? Please indicate the selected item by its label.
Given back: 2

P = O=C(CCCCCCn1cc(-c2cccc(Nc3c4ccccc4nc4ccccc34)c2)nn1)NO
Q = CCN(Cc1ccc(-c2ccccc2)cc1)Cc1ccc(/C=C/C(=O)NO)o1
Asked: Which value of pIC50 is greater, the one for P or the one for Q ? Please indicate the selected item by its label.
Given back: P
(P: 8.30, Q: 6.08)
